B1: HDV Ribozyme (parent)
chain: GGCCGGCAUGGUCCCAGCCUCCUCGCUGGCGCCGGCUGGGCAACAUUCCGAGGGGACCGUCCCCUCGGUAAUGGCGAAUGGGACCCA

Variants of: B1
METHOD SUMMARY: self-cleavage, relative activity (ratio to wild type); higher = more cleavage; co-transcriptional
Parameter threshold = 0.2. Response is yes when self-cleavage meets or exceeds it, else no.

Solved cases below.
Query string: Entry GGCCGGCAUGGUCGCGGCCUCCUCGCUGGCGCCGGCUGGGCAACAUUCCGAGGGGACCGUCCCCUCGGUAAUGGCGAAUGGGACCCA [C14G A16G] : is its self-cleavage no less than 0.2?
Result string: yes

Query string: I'd appreciate it if you could say whether GGCCGGCAUGGUCCCAGCCUCCUCCCUGGCGCCGGCUGGGCAACAUUCCGAGGGGACCGACCCCUCGGUAAUGGCGAAUGGGACCCA [G25C U60A] has self-cleavage at least equal to 0.2.
Result string: yes

Others:
Query string: Given CGCCGGCAUGGUCCCAGCCUCCUCGCUGGCGCCGGCUGGGCAACAUUCCGAGGGGACAGUCCCCUCGGUAAUGGCGAAUGGGACCCA [G1C C58A] , state whether its self-cleavage is at least 0.2.
Result string: yes

Query string: Tell me whether self-cleavage is at least 0.2 here: GGCCGGAAUGGUCCCAGCCUCCUCGCUGGCGCCGGCUGGGCAACAUUCCGAGGGGACCGUCCCCUCGGUAAUGGGGAAUGGGACCCA [C7A C75G]
Result string: yes

Query string: Has GGCCGGCAUGGUCCCAGCCUCCUCGCUGGCGCCGGCUGGGCAACAUUCCGAGCGGACCGUCCCCUCGGUAAUGGCGAAUGUGACCCA [G53C G81U] a recorded self-cleavage greater than or equal to 0.2?
Result string: yes
